Where do the numbers come from? From patent US10323000B2.

Molecular target: P2X7 (IL-1β release from THP-1 cells) (Homo sapiens (Human), UniProt Q99572)
Sequence (Q99572 whole entry): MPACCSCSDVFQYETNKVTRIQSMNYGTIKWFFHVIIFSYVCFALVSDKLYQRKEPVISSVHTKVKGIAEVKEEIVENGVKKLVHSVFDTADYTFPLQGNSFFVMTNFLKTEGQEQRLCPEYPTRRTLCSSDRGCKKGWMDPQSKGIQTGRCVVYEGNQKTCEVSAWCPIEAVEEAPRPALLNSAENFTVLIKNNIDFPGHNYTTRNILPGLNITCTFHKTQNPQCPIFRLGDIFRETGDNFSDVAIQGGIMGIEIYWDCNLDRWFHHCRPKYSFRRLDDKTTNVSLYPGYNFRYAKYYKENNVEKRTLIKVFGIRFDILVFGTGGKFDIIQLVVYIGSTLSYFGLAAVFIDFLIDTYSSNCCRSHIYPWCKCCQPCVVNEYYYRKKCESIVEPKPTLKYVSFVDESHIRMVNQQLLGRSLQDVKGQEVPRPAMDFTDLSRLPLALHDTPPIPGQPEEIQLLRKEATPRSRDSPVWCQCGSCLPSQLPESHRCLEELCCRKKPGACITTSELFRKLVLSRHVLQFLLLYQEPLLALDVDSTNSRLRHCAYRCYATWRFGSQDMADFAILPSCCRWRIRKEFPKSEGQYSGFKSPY
Assay: IL-1β release assay
Format: cell-based
Experimental: IL-1β release assay: The activation of P2X7 by ATP leads to a fast transient activation of cells resulting in influx of Ca^2+ followed by conversion of pro-IL-1β to active IL-1β. The functional activity of P2X7 compounds was measured by the release of mature […] in the culture medium of THP-1 cells, detected by sandwich ELISA. […] The cells were centrifuged, supernatant was collected and the presence of mature IL-1β was detected using Dual human IL-1b kit following manufacturer's instruction. […]
pIC50: −log10 of the molar value.
QUANTITY_NAME: pIC50

MOLECULE: NCCn1cc(C(=O)NCC2CCC(F)(F)CC2)c2c(Cl)cccc21 [Compound 6]
TARGET_UNDER_TEST: P2X7 (IL-1β release from THP-1 cells) (Homo sapiens (Human), UniProt Q99572)
pIC50: 7.00 to 8.00
//
MOLECULE: O=C(NC[C@]1(O)CCCC(F)(F)C1)c1cn(C[C@@H]2CCCO2)c2cccc(Cl)c12 [Compound 130]
TARGET_UNDER_TEST: P2X7 (IL-1β release from THP-1 cells) (Homo sapiens (Human), UniProt Q99572)
pIC50: 7.00 to 8.00
//
MOLECULE: O=C(NCC1(O)CCCC(F)(F)C1)c1cn(C2CCNC2)c2cccc(Cl)c12 (centres unmarked) [Compound 120]
TARGET_UNDER_TEST: P2X7 (IL-1β release from THP-1 cells) (Homo sapiens (Human), UniProt Q99572)
pIC50: 7.00 to 8.00
//
MOLECULE: COCCn1cc(C(=O)NCCc2ccccc2Cl)c2c(Cl)cccc21 [Compound 35]
TARGET_UNDER_TEST: P2X7 (IL-1β release from THP-1 cells) (Homo sapiens (Human), UniProt Q99572)
pIC50: 6.30 to 7.00

For each of the molecules below, note its pIC50.
1. O=C(NCC1CCC(F)(F)CC1)c1cn(CCO)c2cccc(C(F)(F)F)c12 [Compound 198]
2. O=C(NCC1(O)CCCC(F)(F)C1)c1cn(CCN2CCCC2)c2cccc(Cl)c12 (centres unmarked) [Compound 178]
3. O=C(NCC1CCC(F)(F)CC1)c1cn(C[C@H]2CCCN2)c2cccc(Cl)c12 [Compound 154]
4. O=C(NCC1CCC(F)(F)CC1)c1cn(CC2CCOCC2)c2cccc(Cl)c12 [Compound 168]

1. 7.00 to 8.00
2. 7.00 to 8.00
3. 7.00 to 8.00
4. 6.30 to 7.00
